- target.system: Prostaglandin G/H synthase 2 (Mus musculus, UniProt Q05769)
- Sequence (Q05769 whole entry): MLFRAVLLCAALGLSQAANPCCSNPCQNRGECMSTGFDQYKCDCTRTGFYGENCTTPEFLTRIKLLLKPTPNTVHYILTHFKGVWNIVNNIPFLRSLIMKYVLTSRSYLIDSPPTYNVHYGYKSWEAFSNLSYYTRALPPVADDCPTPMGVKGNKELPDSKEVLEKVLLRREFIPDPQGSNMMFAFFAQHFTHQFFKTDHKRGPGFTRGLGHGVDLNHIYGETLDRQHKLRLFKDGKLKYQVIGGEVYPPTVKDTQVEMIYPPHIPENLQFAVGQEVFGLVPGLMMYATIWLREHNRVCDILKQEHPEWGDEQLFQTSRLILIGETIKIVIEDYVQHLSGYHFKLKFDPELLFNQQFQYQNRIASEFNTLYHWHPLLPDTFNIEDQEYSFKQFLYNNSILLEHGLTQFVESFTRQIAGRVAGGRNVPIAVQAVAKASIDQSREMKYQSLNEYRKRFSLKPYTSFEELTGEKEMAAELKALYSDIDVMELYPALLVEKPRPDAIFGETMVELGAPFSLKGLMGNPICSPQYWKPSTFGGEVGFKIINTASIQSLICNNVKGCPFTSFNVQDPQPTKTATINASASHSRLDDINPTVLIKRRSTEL
experimental.endpoint: IC50 (nM)

• CS(=O)(=O)c1ccc(-c2[nH]c3ccccc3c2-c2ccccc2)cc1 = 0.603
• Cc1ccc2[nH]c(-c3ccc(S(N)(=O)=O)cc3)c(-c3ccccc3)c2c1 = 0.02
• COc1ccc(-c2c(-c3ccc(S(C)(=O)=O)cc3)[nH]c3ccccc23)cc1 = 0.02
• NS(=O)(=O)c1ccc(-c2[nH]c3ccccc3c2-c2ccc(Cl)cc2)cc1 = 33.1
